# study target: anti-BCMA CAR
# test summary: flow cytometry; clonal supernatant on anti-BCMA CAR T cells, FITC goat anti-rabbit F(ab')2 detection
measured metric: CAR+ (gate frequency)

[
  {
    "binder": "Clone 18-4 (antibody, V domains shown) VH: QERLVESGGGLVQPEGSLTLTCTASGLTLSNYWLCWVRQAPGKGLEWIACIYTGNYGSAYYANWVKGRFTISKASSTTVTLQMTSLTAADTATYFCARDPYTLTNVDVLWGPGTLVTVSS VL: ALVMTQTPSPVSAAVGGTVTINCQASQSIGSDLAWYQQRPGQPPKLLIYWASTLASGVPSRFSGSGSGTQFTLTISDLECDDAATYYCTGYISYNDDNAAFGGGTEVVVK",
    "numeric result": 41.7
  }
]
